From: patent US20120245137A1

- target-or-test-system: human α1G T-type channels (Homo sapiens, UniProt O43497)
- Sequence (O43497 whole entry): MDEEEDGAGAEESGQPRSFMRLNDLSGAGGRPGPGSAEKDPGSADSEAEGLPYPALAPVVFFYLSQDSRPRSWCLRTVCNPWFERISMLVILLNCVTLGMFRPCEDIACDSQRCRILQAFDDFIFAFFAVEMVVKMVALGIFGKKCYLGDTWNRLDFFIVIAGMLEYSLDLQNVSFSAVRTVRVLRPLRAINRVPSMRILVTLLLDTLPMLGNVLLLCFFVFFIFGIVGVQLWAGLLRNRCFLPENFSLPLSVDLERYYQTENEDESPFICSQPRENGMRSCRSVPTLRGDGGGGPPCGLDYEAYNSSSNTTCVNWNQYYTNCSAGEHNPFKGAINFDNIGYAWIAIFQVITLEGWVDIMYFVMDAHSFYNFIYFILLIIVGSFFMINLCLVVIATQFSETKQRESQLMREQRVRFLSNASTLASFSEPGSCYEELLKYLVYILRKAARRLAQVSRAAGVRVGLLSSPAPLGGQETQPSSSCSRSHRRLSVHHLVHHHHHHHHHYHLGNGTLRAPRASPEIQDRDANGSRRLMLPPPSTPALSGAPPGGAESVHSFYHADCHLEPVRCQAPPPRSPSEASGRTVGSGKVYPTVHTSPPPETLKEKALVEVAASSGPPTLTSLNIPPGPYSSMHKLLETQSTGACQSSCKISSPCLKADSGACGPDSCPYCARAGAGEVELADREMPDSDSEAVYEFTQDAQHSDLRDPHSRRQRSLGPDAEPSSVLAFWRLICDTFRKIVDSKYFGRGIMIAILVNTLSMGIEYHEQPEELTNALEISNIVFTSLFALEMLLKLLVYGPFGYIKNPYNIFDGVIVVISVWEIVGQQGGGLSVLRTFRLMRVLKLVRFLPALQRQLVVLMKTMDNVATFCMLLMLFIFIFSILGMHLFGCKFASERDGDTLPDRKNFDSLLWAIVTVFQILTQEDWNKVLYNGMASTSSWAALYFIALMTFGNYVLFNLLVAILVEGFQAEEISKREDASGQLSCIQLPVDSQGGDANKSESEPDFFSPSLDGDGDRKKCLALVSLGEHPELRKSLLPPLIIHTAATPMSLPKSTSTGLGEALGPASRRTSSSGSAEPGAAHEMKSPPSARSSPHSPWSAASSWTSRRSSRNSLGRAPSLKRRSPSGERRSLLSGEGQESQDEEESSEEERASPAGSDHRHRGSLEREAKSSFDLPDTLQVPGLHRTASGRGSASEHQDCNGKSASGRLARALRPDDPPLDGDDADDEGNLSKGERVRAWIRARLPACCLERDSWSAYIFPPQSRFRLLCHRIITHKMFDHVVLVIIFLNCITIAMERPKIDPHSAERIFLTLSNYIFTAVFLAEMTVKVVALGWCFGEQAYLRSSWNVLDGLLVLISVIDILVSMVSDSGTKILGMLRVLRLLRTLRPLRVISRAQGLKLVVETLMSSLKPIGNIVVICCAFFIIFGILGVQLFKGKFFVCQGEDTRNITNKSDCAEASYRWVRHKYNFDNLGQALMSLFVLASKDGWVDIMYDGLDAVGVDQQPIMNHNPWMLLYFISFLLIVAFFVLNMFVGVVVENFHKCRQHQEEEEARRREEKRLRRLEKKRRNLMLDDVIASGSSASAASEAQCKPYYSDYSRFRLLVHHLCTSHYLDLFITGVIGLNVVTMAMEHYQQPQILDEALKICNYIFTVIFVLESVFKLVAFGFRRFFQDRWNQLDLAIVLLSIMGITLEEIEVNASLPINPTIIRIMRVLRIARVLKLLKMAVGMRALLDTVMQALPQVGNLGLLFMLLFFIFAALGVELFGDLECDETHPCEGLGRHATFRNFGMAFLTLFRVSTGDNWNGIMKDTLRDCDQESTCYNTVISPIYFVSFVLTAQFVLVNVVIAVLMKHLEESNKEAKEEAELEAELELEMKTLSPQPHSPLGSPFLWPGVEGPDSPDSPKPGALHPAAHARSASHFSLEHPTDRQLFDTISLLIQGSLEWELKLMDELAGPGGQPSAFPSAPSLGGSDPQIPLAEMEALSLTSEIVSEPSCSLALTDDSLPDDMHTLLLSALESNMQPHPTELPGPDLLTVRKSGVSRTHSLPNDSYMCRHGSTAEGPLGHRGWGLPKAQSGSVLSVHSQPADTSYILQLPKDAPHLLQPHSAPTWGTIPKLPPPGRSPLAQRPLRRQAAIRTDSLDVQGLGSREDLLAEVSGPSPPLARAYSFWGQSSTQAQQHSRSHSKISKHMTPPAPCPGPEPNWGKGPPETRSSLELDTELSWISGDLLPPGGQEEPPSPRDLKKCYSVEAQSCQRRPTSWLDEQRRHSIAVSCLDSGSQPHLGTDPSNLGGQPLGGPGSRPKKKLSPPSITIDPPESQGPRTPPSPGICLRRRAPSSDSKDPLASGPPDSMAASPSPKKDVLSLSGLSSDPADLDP
- measurement-description: T-type calcium channel block, whole cell patch clamp, α1G
- measurement-context: HEK cells stably expressing human α1G; mainly non-inactivated protocol; values above 10,000 nM represented as 10000
readout-label: IC50

[[record]]
molecule = "Cc1cc(NC(=O)CN[C@H]2CC[C@@H](S(=O)(=O)c3cccc(C(F)(F)F)c3)CC2)on1 [Compound 54]"
target_or_test_system = "human α1G T-type channels (Homo sapiens, UniProt O43497)"
measured_value = "> 10 µM"

[[record]]
molecule = "O=C(Nc1ccc(Oc2ccc(F)cc2)nc1)[C@H]1C[C@H](S(=O)(=O)c2cccc(C(F)(F)F)c2)C1 [Compound 405]"
target_or_test_system = "human α1G T-type channels (Homo sapiens, UniProt O43497)"
measured_value = "> 10 µM"

[[record]]
molecule = "O=C(N[C@H]1CC[C@@](F)(S(=O)(=O)c2cccc(C(F)(F)F)c2)CC1)c1ccnc(C(F)(F)F)n1 [Compound 268]"
target_or_test_system = "human α1G T-type channels (Homo sapiens, UniProt O43497)"
measured_value = "> 10 µM"

